molecular target: EGLN2; assay: cell-based or functional assay
Where no end group is shown, it is not given here.
Consider the following binders and their measured Activity (%)* readings.
attribute.measured: Activity (%)*

[[record]]
binder = "DTDLDLEALAPYIPADDDFQ [DTDLDLEALApYIPADDDFQ]"
unit_descriptor = "%"
recorded_value = 102

[[record]]
binder = "DTDLDAEAAAPYIPADDDFQ [DTDLDAEAAApYIPADDDFQ]"
unit_descriptor = "%"
recorded_value = 8.63

[[record]]
binder = "DTDLDLEMLKPYIPMDDDFQ (not fully specified; printed as DTDLDLEMLKpYIPMDDDFQ) [DTDLDLEMLKpYIPMDDDFQ]"
unit_descriptor = "%"
recorded_value = 57.7

